# Tested on: relapsed AML cells
# Assay Protocol: Drug sensitivity assay, 1,536-well, 3-day culture with individual approved drugs at 10 μM, viability by alamarBlue
# Type: cell-based, human
# Experimental Conditions: number of relapsed AML cases out of 18 tested with >70% cell death; 10 μM, 3-day culture
Listing of recorded #Cases >70% cell death by entry.
Output spec: single numeric token, no unit.

A selection of reference data follows.
Cc1cc(C2CCCCC2)n(O)c(=O)c1
14
CN1CCCC(n2nc(Cc3ccc(Cl)cc3)c3ccccc3c2=O)CC1 (centres unmarked)
2
Nc1nc2nn[nH]c2c(=O)[nH]1
1

## Input Any idea what its #Cases >70% cell death is? The compound is COc1ccc(CCN2CCC(Nc3nc4ccccc4n3Cc3ccc(F)cc3)CC2)cc1
## Output 7

## Input Same lookup for O=C(O)/C=C/c1ccc(-c2ccc(O)c(C34CC5CC(CC(C5)C3)C4)c2)cc1 , please.
## Output 11

FYI, the data here is from patent US20210405025A1.
